The following molecules are listed with their measured IC50 values.
- SYSTEM TESTED: Aminopeptidase N (Sus scrofa, UniProt P15145)
- Sequence (P15145 whole entry): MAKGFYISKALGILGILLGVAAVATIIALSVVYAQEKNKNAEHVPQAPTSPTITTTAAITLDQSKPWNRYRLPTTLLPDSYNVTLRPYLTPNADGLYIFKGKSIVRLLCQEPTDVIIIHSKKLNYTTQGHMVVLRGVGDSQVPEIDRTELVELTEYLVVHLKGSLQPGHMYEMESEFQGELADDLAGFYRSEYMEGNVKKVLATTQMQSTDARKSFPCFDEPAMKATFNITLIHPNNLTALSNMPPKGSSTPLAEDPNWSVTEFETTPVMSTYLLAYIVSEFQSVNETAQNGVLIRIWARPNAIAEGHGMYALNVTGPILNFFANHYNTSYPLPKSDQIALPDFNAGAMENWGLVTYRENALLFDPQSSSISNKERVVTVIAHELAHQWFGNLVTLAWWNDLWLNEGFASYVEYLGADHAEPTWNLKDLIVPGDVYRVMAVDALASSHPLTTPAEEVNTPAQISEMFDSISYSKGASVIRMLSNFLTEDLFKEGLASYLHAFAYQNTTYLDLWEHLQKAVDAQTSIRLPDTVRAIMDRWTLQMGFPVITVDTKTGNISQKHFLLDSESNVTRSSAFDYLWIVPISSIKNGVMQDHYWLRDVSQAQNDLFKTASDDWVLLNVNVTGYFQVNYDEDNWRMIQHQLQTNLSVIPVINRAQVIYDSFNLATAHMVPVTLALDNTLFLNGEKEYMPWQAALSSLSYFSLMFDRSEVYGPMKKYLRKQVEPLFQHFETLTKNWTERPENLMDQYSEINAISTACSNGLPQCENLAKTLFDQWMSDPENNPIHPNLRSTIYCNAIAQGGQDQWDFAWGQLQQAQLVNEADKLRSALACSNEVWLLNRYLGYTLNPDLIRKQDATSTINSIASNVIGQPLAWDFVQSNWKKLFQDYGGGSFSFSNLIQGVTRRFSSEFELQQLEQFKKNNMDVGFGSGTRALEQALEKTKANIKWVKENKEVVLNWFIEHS
- EXPERIMENTAL PROTOCOL: APN Inhibition Assay
- CONDITIONS: pH 7.5; 25 °C
Quick note: give the figure in µM, leave out the unit.

See these solved cases before continuing.
So, CC(C)C[C@H](NC(=O)[C@H](O)[C@@H](N)c1ccccc1)C(=O)NO ? Its IC50 was 56.7

The recorded IC50 for N[C@@H](c1ccccc1)[C@@H](O)C(=O)N[C@H](C(=O)NO)c1ccccc1 is 1.26

Next:
# IC50 (molecule: CCC(C)[C@H](NC(=O)[C@H](O)[C@@H](N)c1ccccc1)C(=O)NO (some centres not stated) ) is 82.9

The molecule listed as N[C@@H](c1ccccc1)[C@@H](O)C(=O)N[C@H](C(=O)O)c1ccccc1 shows IC50 equal to 198

// sample N[C@@H](c1ccccc1)[C@@H](O)C(=O)N[C@@H](Cc1ccccc1)C(=O)NO , its IC50 was 44

get_value(item= CC(C)[C@H](NC(=O)[C@H](O)[C@@H](N)c1ccccc1)C(=O)NO , readout=IC50) returns 76.9

Recorded IC50 (molecule CC(C)C[C@H](NC(=O)[C@H](Cc1ccccc1)NC(=O)[C@H](O)[C@@H](N)c1ccccc1)C(=O)O ): 105

* * *

For 72 kDa type IV collagenase (Pig, UniProt Q95JA4), measured IC50 is reported for the entries below.
Enter your answer as a number in µM; do not include the unit.

Below: 5 compounds and their reported IC50.
Result for CC(C)C[C@H](NC(=O)[C@@H](O)[C@H](N)Cc1ccccc1)C(=O)O , tested on 72 kDa type IV collagenase (Pig, UniProt Q95JA4), IC50: 163

Bench note, 72 kDa type IV collagenase (Pig, UniProt Q95JA4): CC(C)C[C@H](NC(=O)[C@H](O)[C@@H](N)c1ccccc1)C(=O)O , IC50 reads 215

Lab note: compound CC(C)C[C@H](NC(=O)[C@H](O)[C@@H](N)c1ccccc1)C(=O)NC(C(=O)O)c1ccccc1 (stereo partly specified) tested on 72 kDa type IV collagenase (Pig, UniProt Q95JA4); recorded IC50 was 186

72 kDa type IV collagenase (Pig, UniProt Q95JA4) assay, compound C[C@H](NC(=O)[C@H](O)[C@@H](N)c1ccccc1)C(=O)O , recorded IC50 = 273

Lab entry: 72 kDa type IV collagenase (Pig, UniProt Q95JA4) assay, compound CC(C)C[C@H](NC(=O)[C@H](CC(C)C)NC(=O)[C@H](O)[C@@H](N)c1ccccc1)C(=O)O , IC50 = 424

Alright, here's another compound for you.
Summary: N[C@@H](c1ccccc1)[C@@H](O)C(=O)N[C@@H](Cc1ccccc1)C(=O)NO , 72 kDa type IV collagenase (Pig, UniProt Q95JA4), IC50 = 249

* * *

- SYSTEM TESTED: 72 kDa type IV collagenase (Pig, UniProt Q95JA4)
- Sequence (Q95JA4 whole entry): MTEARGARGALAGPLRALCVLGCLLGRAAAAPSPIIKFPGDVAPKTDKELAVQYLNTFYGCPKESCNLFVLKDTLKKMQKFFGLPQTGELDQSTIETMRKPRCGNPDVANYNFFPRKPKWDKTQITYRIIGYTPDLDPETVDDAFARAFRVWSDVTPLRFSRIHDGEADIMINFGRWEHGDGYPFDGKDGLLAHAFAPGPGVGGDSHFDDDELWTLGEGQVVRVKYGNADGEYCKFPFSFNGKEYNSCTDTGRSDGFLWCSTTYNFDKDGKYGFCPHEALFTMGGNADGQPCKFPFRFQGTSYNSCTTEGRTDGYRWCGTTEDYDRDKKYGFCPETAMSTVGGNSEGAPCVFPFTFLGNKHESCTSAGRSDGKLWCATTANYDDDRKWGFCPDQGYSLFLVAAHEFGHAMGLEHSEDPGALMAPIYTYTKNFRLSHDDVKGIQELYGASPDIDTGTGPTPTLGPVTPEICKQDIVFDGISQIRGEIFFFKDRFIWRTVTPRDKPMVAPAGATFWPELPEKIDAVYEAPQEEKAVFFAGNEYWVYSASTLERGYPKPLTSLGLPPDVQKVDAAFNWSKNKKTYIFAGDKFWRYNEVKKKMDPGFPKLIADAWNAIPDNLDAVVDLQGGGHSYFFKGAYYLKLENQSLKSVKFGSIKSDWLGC
- EXPERIMENTAL PROTOCOL: MMP-2 Inhibition Assay
One threshold, 400 µM, splits the recorded IC50 values: lower ones are rule met, equal or higher ones are rule not met.

Would you please look over these solved cases?
Quick check: IC50 of N[C@@H](c1ccccc1)[C@@H](O)C(=O)N[C@@H](CO)C(=O)NO under 400 µM?
rule met

Confirm or reject: IC50 of N[C@@H](c1ccccc1)[C@@H](O)C(=O)N[C@H](C(=O)NO)c1ccccc1 lies strictly below 400 µM
rule met

A record lists N[C@@H](c1ccccc1)[C@@H](O)C(=O)N[C@@H](CO)C(=O)O . Is its IC50 below 400 µM?
rule not met

Now turn to the next compound.
# check: IC50 < 400 µM for CC(C)C[C@H](NC(=O)[C@H](O)[C@@H](N)c1ccccc1)C(=O)NO
rule met

The measured values listed here are drawn from BindingDB's records for doi:10.3109/14756366.2012.656622.
